FYI, the data here is from PubChem BioAssay AID268.

- Tested on: CD2F1 mice, P1798 lymphosarcoma sc, tumor weight T/C
- Assay name: NCI In Vivo Anticancer Drug Screen. Data for tumor model P1798 Lymphosarcoma (subcutaneous) in CD2F1 (CDF1) mice
- Assay conditions: endpoint: mean tumor weight; dose: 6.25 mg/kg/injection; schedule: Q01DX010 (ip); vehicle: saline; higher = larger tumour
- Experimental: The antitumor activity of compounds was measured in mice bearing transplantable tumors. Survival or tumor size were measured and the results are expressed as the measurement made in the treated group (T) divided by the measurement made in the vehicle treated control group (C). The tumor model used in this assay is P1798 Lymphosarcoma (subcutaneous) in CD2F1 (CDF1) mice

Compound: CCCNc1ncnc2c1cnn2C
T/C: 103 % of control
--
Compound: O=C(O)C(=O)O.[U]
T/C: 28 % of control
--
Compound: NCCCCC(N)C(=O)NCCCCCCCCCCNC(=O)C(N)CCCCN (stereo not given)
T/C: 106 % of control
--
Compound: NC(N)=NCCCC(N)C(=O)NCCCCCCCCCCNC(=O)C(N)CCCN=C(N)N (stereo not given)
T/C: 103 % of control
--
Compound: NCCCC(N)C(=O)NCCCCCCCCCCNC(=O)C(N)CCCN (stereo not given)
T/C: 98 % of control
--
Compound: CS(=O)(=O)OCCCCOS(C)(=O)=O
T/C: 103 % of control
--
Compound: COc1ccc2[nH]c3c(C)c4ccncc4c(C)c3c2c1
T/C: 61 % of control
--
Compound: C[C@H]1C(=O)O[C@@H]2CCN3CC=C(COC(=O)[C@](C)(O)[C@@]1(C)O)[C@H]23
T/C: 77 % of control
--
Compound: NCCCCCCNCCCCCCN
T/C: 90 % of control
--
Compound: O=C(C(=O)N1CC1)c1c[nH]c2ccccc12
T/C: 105 % of control

* * *

Listing: T/C of selected compounds
- Tested on: CD2F1 mice, P1798 lymphosarcoma sc, tumor weight T/C
- Assay name: NCI In Vivo Anticancer Drug Screen. Data for tumor model P1798 Lymphosarcoma (subcutaneous) in CD2F1 (CDF1) mice
- Assay conditions: endpoint: mean tumor weight; dose: 12.5 mg/kg/injection; schedule: Q01DX005 (sc); vehicle: steriod suspending solution; higher = larger tumour

Smiles repr: C[C@]12CCC(=O)C=C1CC[C@@H]1[C@@H]2[C@@H](O)C[C@@]2(C)[C@H]1CC[C@]2(O)C(=O)CO
Target system: CD2F1 mice, P1798 lymphosarcoma sc, tumor weight T/C
T/C: 51 % of control
//
Smiles repr: C[C@]12C=CC(=O)C=C1CC[C@@H]1[C@@H]2[C@@H](O)C[C@@]2(C)[C@H]1CC[C@]2(O)C(=O)CO
Target system: CD2F1 mice, P1798 lymphosarcoma sc, tumor weight T/C
T/C: 41 % of control
//
Smiles repr: CC(=O)[C@@]1(O)CC[C@H]2[C@@H]3C[C@H](C)C4=CC(=O)C=C[C@]4(C)[C@@]3(F)[C@@H](O)C[C@@]21C
Target system: CD2F1 mice, P1798 lymphosarcoma sc, tumor weight T/C
T/C: 3 % of control
//
Smiles repr: C[C@@H]1C[C@H]2[C@@H]3CCC4=CC(=O)C=C[C@]4(C)[C@@]3(F)[C@@H](O)C[C@]2(C)[C@@]1(O)C(=O)CO
Target system: CD2F1 mice, P1798 lymphosarcoma sc, tumor weight T/C
T/C: 4 % of control
//
Smiles repr: CC(=O)O[C@]1(C(C)=O)CC[C@H]2[C@@H]3C[C@H](C)C4=CC(=O)C=C[C@]4(C)[C@@]3(F)[C@@H](O)C[C@@]21C
Target system: CD2F1 mice, P1798 lymphosarcoma sc, tumor weight T/C
T/C: 32 % of control

* * *

- System: CD2F1 mice, P1798 lymphosarcoma sc, tumor weight T/C
- Assay name: NCI In Vivo Anticancer Drug Screen. Data for tumor model P1798 Lymphosarcoma (subcutaneous) in CD2F1 (CDF1) mice
- Assay conditions: endpoint: mean tumor weight; dose: 0.63 mg/kg/injection; schedule: Q01DX010 (ip); vehicle: saline; higher = larger tumour
Listing: T/C of selected molecules

Molecule: Nc1ncnc2c1ccn2C1OC(CO)C(O)C1O (centres undefined)
T/C: 101 % of control
--
Molecule: Nc1nc(=S)c2[nH]cnc2[nH]1
T/C: 74 % of control
--
Molecule: O=C(NCCCC(NC(=O)OCc1ccccc1)C(=O)NCCCNCCCCNCCCNC(=O)C(CCCNC(=O)OCc1ccccc1)NC(=O)OCc1ccccc1)OCc1ccccc1 (centres undefined)
T/C: 156 % of control
--
Molecule: CN[C@H]1CCc2cc(OC)c(OC)c(OC)c2-c2ccc(OC)c(=O)cc21
T/C: 59 % of control

* * *

- System: CD2F1 mice, P1798 lymphosarcoma sc, tumor weight T/C
- Assay name: NCI In Vivo Anticancer Drug Screen. Data for tumor model P1798 Lymphosarcoma (subcutaneous) in CD2F1 (CDF1) mice
- Assay conditions: endpoint: mean tumor weight; dose: 100.0 mg/kg/injection; schedule: Q01DX010 (ip); vehicle: saline; higher = larger tumour
Assay endpoint: T/C

Compound: Cc1ccc2[nH]c3nc4cc(C)c(C)cc4nc3c2c1
Assay endpoint: T/C
Result: 76 % of control
//
Compound: Cc1cn(C2OC(CO)C(O)C2O)c(=O)[nH]c1=O (configuration not stated)
Assay endpoint: T/C
Result: 67 % of control
//
Compound: N#CCCCCCNC(=O)CCCCC(=O)NCCCCCC#N
Assay endpoint: T/C
Result: 85 % of control
//
Compound: COC1C(OC(=O)/C=C/C=C/C=C/C=C/C(=O)O)CCC2(CO2)C1C1(C)OC1CC=C(C)C (configuration not stated)
Assay endpoint: T/C
Result: 28 % of control
//
Compound: CO[C@@H]1[C@@H](OC2OC(C)C(OC3CC(C)(O)C(OC(=O)CC(C)C)C(C)O3)C(N(C)C)C2O)[C@@H](CC=O)C[C@@H](C)C(=O)/C=C/C2O[C@H]2C[C@@H](C)OC(=O)C[C@H]1OC(C)=O (some centres not stated)
Assay endpoint: T/C
Result: 90 % of control
//
Compound: CC(=O)NCCCCCCNCCCCCCNC(C)=O
Assay endpoint: T/C
Result: 92 % of control
//
Compound: NC(N)=NCCCC(N)C(=O)NCCCCCCNC(=O)C(N)CCCN=C(N)N (configuration not stated)
Assay endpoint: T/C
Result: 99 % of control
//
Compound: NCCCCC(N)C(=O)NCCCCCCNC(=O)CCCCC(=O)NCCCCCCNC(=O)C(N)CCCCN (configuration not stated)
Assay endpoint: T/C
Result: 110 % of control
//
Compound: O=C(NCCCCC(NC(=O)c1ccccc1)C(=O)NCCCCCCNCCCCCCNC(=O)C(CCCCNC(=O)c1ccccc1)NC(=O)c1ccccc1)c1ccccc1 (configuration not stated)
Assay endpoint: T/C
Result: 85 % of control
//
Compound: CC(=O)NCCSC(=O)C(=O)SCCNC(C)=O
Assay endpoint: T/C
Result: 110 % of control
//
Compound: NCC(=O)NCCCCCCNCCCCCCNC(=O)CN
Assay endpoint: T/C
Result: 113 % of control
//
Compound: O=c1cnn(C2OC(CO)C(O)C2O)c(=O)[nH]1 (configuration not stated)
Assay endpoint: T/C
Result: 73 % of control
//
Compound: c1ccc(CSc2ncnc3nc[nH]c23)cc1
Assay endpoint: T/C
Result: 13 % of control
//
Compound: CCN(CC)CCNc1ccc(C)c2sc3ccccc3c(=O)c12
Assay endpoint: T/C
Result: 10 % of control
//
Compound: CC(=O)NCCCCCCNC(C)=O
Assay endpoint: T/C
Result: 95 % of control
//
Compound: CS(=O)(=O)OCCCCOS(C)(=O)=O
Assay endpoint: T/C
Result: 52 % of control
//
Compound: Nc1nc(=O)n(C2CC(O)C(CO)O2)cc1Br (configuration not stated)
Assay endpoint: T/C
Result: 65 % of control
//
Compound: CS(=O)(=O)OCCC(=O)N1CCN(C(=O)CCOS(C)(=O)=O)CC1
Assay endpoint: T/C
Result: 4 % of control
//
Compound: NC(=O)n1cccn1
Assay endpoint: T/C
Result: 71 % of control
//
Compound: CC(=O)NCCCCCCCCCCNC(C)=O
Assay endpoint: T/C
Result: 113 % of control
//
Compound: Cc1cc2nc3c(=O)[nH]c(=O)nc-3n(CC(O)C(O)C(O)C(O)CO)c2cc1C (configuration not stated)
Assay endpoint: T/C
Result: 88 % of control
//
Compound: O=C(NCCCCCCNC(=O)OCc1ccccc1)OCc1ccccc1
Assay endpoint: T/C
Result: 119 % of control
//
Compound: O=C(NCCCCC(NC(=O)c1ccccc1)C(=O)NCCCCCCCCCCNC(=O)C(CCCCNC(=O)c1ccccc1)NC(=O)c1ccccc1)c1ccccc1 (configuration not stated)
Assay endpoint: T/C
Result: 90 % of control
//
Compound: O=C(CNC(=O)OCc1ccccc1)NCCCCCCNCCCCCCNC(=O)CNC(=O)OCc1ccccc1
Assay endpoint: T/C
Result: 97 % of control
//
Compound: Nc1c(N=Nc2ccc([N+](=O)[O-])cc2)c(S(=O)(=O)O)cc2cc(S(=O)(=O)O)c(N=Nc3ccc(Sc4ccc(N=Nc5ccc(O)cc5)cc4)cc3)c(O)c12 (tested in a mixture with another compound)
Assay endpoint: T/C
Result: 76 % of control
//
Compound: NCCCC(N)C(=O)NCCCCCCNCCCCCCNC(=O)C(N)CCCN (configuration not stated)
Assay endpoint: T/C
Result: 34 % of control
//
Compound: CN(C)/N=N/c1nc[nH]c1C(N)=O
Assay endpoint: T/C
Result: 47 % of control
